- Measured On: T1, RSV postfusion F (postF), subtype A (respiratory syncytial virus subtype A, UniProt P03420 26-513)
- T1 construct: also called Postfusion subtype A; F deltaFP
- Method: BLI
Reported Metric: binding result

ADI-24839 (antibody, V domains shown, full-length IgG) VH: EVQLVESGGGLVKPGGSLRLSCAASGFTFSSYSMNWVRQAPGKGLEWVSSISSSSSYIYYADSVKGRFTISRDNAKNSLYLQMNSLRAEDTAVYYCARVLVATAYGNAFDIWGQGTMVTVSS VL: QSVLTQPPSVSGAPGQRVTISCTGSSSNIGAGYDVHWYQQLPGTAPKLLIYGNSNRPSGVPDRFSGSKSGTSASLAITGLQAEDEADYYCQSYDSSLTVVFGGGTKLTVL; no binding
ADI-14335 (antibody, V domains shown, full-length IgG; also called Ab 3) VH: EVQLVESGGGLVQPGRSLRLSCTASGFTFGDYAMSWVRQAPGKGLEWVGFIRSNAFGGTSEYAASVKGRFTISRDDSKSIAYLQMNSLKTEDTAVYYCTRDGIHDYGDSYYYYGMDVWGQGTTVTVSS VL: DIQLTQSPSSLSASVGDRVTITCRASQTVTTYLNWYQQKPGKAPKLLIYGASSLQSGVPSRFSGSGSGTDFTLTINSLQPEDFATYYCQQTYSTVTFGPGTKVEIK; no binding
ADI-19467 (antibody, V domains shown, full-length IgG) VH: EVQLVESGGGLVKPGGSLRLSCAASGFTFSSYSMNWVRQAPGKGLEWVSSISSSSSYIYYADSVKGRFTISRDNAKNSLYLQMNSLRAEDTAVYYCASLSSSSELGYYFDYWGQGTLVTVSS VL: QPVLTQPPSVSGAPGQRVTISCTGSSSNIGAGYDVHWYQQLPGTAPKLLIYGNSNRPSGVPDRFSGSKSGTSASLAITGLQAEDEADYYCQSYDSSLSGYVFGTGTKLTVL; no binding
